- Target or system: L-lactate dehydrogenase (Plasmodium falciparum (isolate CDC / Honduras)) (UniProt Q27743)
- Sequence (Q27743 whole entry, looked up): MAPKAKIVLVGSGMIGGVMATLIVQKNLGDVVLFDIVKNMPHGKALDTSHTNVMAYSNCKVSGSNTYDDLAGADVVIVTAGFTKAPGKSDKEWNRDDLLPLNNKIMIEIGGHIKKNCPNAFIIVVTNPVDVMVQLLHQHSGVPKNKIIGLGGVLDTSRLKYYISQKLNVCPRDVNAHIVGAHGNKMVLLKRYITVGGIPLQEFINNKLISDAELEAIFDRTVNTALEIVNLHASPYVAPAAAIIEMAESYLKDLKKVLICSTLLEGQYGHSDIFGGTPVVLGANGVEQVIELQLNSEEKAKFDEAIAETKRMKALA
- Assay info: PfLDH activity inhibition – cell lysate, 3D7 strain, counter-screen for P. falciparum growth inhibition project (AID 2304);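 note: 0% = vehicle and 100% = reference inhibitor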
- Condition label: P. falciparum 3D7 crude extract, LDH APAD/NBT absorbance; at 2 µM; active compounds read high
Listed compounds paired with reported inhibition
Number in %, nothing else.

Worked set:
[[record]]
compound = "CN(CCC(O)c1ccc(Cl)c(Cl)c1)C[C@H]1C[C@@H]1C(=O)c1ccccc1 (stereo partly drawn)"
value_measured = -3

[[record]]
compound = "O=C(NCC1CCN(Cc2cccc(F)c2)C1)c1cc(-c2cccc(C(F)(F)F)c2)cs1 (stereo not drawn)"
value_measured = -2

[[record]]
compound = "Clc1cccc(CNC2CCN(CC3CCCCC3)CC2)c1"
value_measured = -2

[[record]]
compound = "CCN(CC)CCN(CCCc1ccc(-c2ccc(C(F)(F)F)cc2)cc1)C(=O)Cn1c(CCc2cccc(F)c2F)nc(=O)c2c1CCC2"
value_measured = -2

[[record]]
compound = "CC(C)c1ccc(NC(=O)NCC2CCCN(CCCCCNC(=O)/C=C/c3ccc(Cl)c(Cl)c3)C2)cc1 (stereo not drawn)"
value_measured = -13

[[record]]
compound = "CCC1CN2CCc3cc(OC)c(OC)cc3C2CC1CC1NCCc2cc(OC)c(OC)cc21 (stereo not drawn)"
value_measured = -3


Recorded inhibition for COc1ccc2nccc(N3CCC(CCNCc4ccc5c(n4)NC(=O)CO5)CC3)c2n1 on L-lactate dehydrogenase (Plasmodium falciparum (isolate CDC / Honduras)) (UniProt Q27743) was -7

Recorded inhibition for O=C(c1ccc(Cl)cc1)C1CCCN(C2CCN(CCc3ccccc3)CC2)C1 (stereo not drawn) on L-lactate dehydrogenase (Plasmodium falciparum (isolate CDC / Honduras)) (UniProt Q27743) was 1

Recorded inhibition for CCOCCCn1c(=N)c(C(=O)NC(C)c2ccccc2)cc2c(=O)n3cccc(C)c3nc21 (stereo not drawn) on L-lactate dehydrogenase (Plasmodium falciparum (isolate CDC / Honduras)) (UniProt Q27743) was -4

Recorded inhibition for CC(C)(C)c1ccccc1SC1=C(O)CC2(CCNCC2)OC1=O on L-lactate dehydrogenase (Plasmodium falciparum (isolate CDC / Honduras)) (UniProt Q27743) was 2

Recorded inhibition for COc1ccc2c(c1)CCCC2NCCCCNC(=O)c1ccc(NC(=O)c2ccc(Cl)cc2)cc1 (stereo not drawn) on L-lactate dehydrogenase (Plasmodium falciparum (isolate CDC / Honduras)) (UniProt Q27743) was -7

Recorded inhibition for CC(C)N1CCN(C(=O)c2ccc(CNCCCN3CCN(c4cccc(Cl)c4Cl)CC3)s2)CC1 on L-lactate dehydrogenase (Plasmodium falciparum (isolate CDC / Honduras)) (UniProt Q27743) was -3

Recorded inhibition for CC(=O)Nc1ncc(C(=O)Nc2ccc(-c3cccc(-c4nc5ccc(F)cc5[nH]4)c3)cc2)s1 on L-lactate dehydrogenase (Plasmodium falciparum (isolate CDC / Honduras)) (UniProt Q27743) was -3

----------
- Assay info: human hepatoma cell viability loss – ATP luminescence, cytotoxicity control for P. falciparum antimalarial project, primary screen (AID 2303);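 note: 0% = DMSO wells and 100% = digitonin-killed cells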
- Condition label: HepG2 viability, 24-48 h, at 10 µM
The source made the active and inactive calls.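 How the source made its calls: active means inhibition above 50%; inactive means the rest.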
Please reply with one of these outcomes: active, inactive

Worked examples, 2 compounds total:
[[record]]
compound = "O=C(Nc1ccc(-c2ccc(-c3nc4ccccc4[nH]3)s2)cc1)Nc1ccc(Cl)c(Cl)c1"
group_label = "active"

[[record]]
compound = "Clc1ccc(OCCC2CCN(CCCCCCCN3CCC(CCOc4ccc(Cl)c(Cl)c4)CC3)CC2)cc1Cl"
group_label = "active"


Okay, now this compound:
In: Tell me the assay call for COC(=O)/C=C/c1ccc(CCC(C)NCC(O)c2cccc(Cl)c2)cc1 (stereo not drawn) please.
Out: inactive

----------
- Assay info: human hepatoma cell viability loss – ATP luminescence, cytotoxicity control for P. falciparum antimalarial project, primary screen (AID 2303);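 note: 0% = DMSO wells and 100% = digitonin-killed cells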
- Condition label: HepG2 viability, 24-48 h, at 10 µM
Calls of active or inactive are those of the source.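 How the source made its calls: active means inhibition above 50%; inactive means the rest.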
Please reply with one of these outcomes: active, inactive

Worked examples, 4 molecules total:
[[record]]
molecule = "Cc1cc(NC(=O)Nc2ccc(C(C)C)cc2)c2ccccc2n1"
group_label = "inactive"

[[record]]
molecule = "Cc1cc(NC(=O)c2cccs2)ccc1OC1CCN(Cc2ccc(C#N)cc2)C1 (stereo not given)"
group_label = "inactive"

[[record]]
molecule = "CCN1CCN(c2ccc(NC(=O)c3cc4c(C)nn(-c5ccccc5)c4s3)cc2C)CC1"
group_label = "inactive"

[[record]]
molecule = "Cc1cc(NCCc2ccccc2)nc(NC(=NCC(=O)OC(C)(C)C)Nc2ccc(C(F)(F)F)cc2)n1"
group_label = "inactive"


In: Tell me the assay call for Cc1cc(=O)c(-c2ccc(Oc3cccc(Cl)c3)cc2)c(C)[nH]1 please.
Out: inactive

In: Tell me the assay call for CN(C)CCN1CCN(CCCN2c3ccccc3Sc3ccc(C(F)(F)F)cc32)CC1 please.
Out: active

In: Tell me the assay call for COc1ccc(OC)c(C=NNc2nc3ccccc3[nH]2)c1 please.
Out: inactive

In: Tell me the assay call for CN(C)Cc1cccc(-c2ccc(NC(=O)c3ccc4c(=O)n(Cc5ccoc5)cnc4c3)cc2)c1 please.
Out: active

In: Tell me the assay call for COc1cc(C)nc2ccc(NC(=O)Nc3ccccc3[N+](=O)[O-])cc12 please.
Out: inactive

In: Tell me the assay call for Cc1onc(-c2ccccc2)c1-c1nc(NCc2ccccc2Cl)no1 please.
Out: inactive

In: Tell me the assay call for COc1ccc(-c2cnc3[nH]cc(-c4ccc(CCC(=O)O)cc4)c3c2)cn1 please.
Out: inactive

In: Tell me the assay call for CCCC(C)Nc1nc(C)cc(N[C@@H](Cc2ccccc2)C(=O)NCCc2ccccc2)n1 (stereo not given in full) please.
Out: inactive

In: Tell me the assay call for COc1ccc(NC(=O)/C=C/c2ccccc2Cl)cc1OCCN1CCC(N(C)C)CC1 please.
Out: inactive

In: Tell me the assay call for Cc1cc(N2C(N)=NC(N)=NC2(C)C)ccc1Cl please.
Out: active

In: Tell me the assay call for COc1ccc(CNC(=O)c2cnc3c(O)cccc3c2Nc2cccc(NC(=O)c3ccc(Cl)c(Cl)c3)c2)cc1 please.
Out: active

----------
- Target or system: L-lactate dehydrogenase (Plasmodium falciparum (isolate CDC / Honduras)) (UniProt Q27743)
- Assay info: PfLDH activity inhibition – cell lysate, 3D7 strain, counter-screen for P. falciparum growth inhibition project (AID 2304);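 note: 0% = vehicle and 100% = reference inhibitor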
- Condition label: P. falciparum 3D7 crude extract, LDH APAD/NBT absorbance; at 2 µM; active compounds read high
Assay readout: inhibition (%)
Number in %, nothing else.

[[record]]
molecule = "Cn1nc(-c2ccc(NC(=O)Nc3cc(C(F)(F)F)ccc3F)cc2)c2cnc(NCCCCN3CCCC3)nc21"
assay_readout = "inhibition"
value_measured = -3

[[record]]
molecule = "O=C(NC(Nc1ccc([N+](=O)[O-])cc1)C(Cl)(Cl)Cl)c1ccc(Cl)cc1 (centres undefined)"
assay_readout = "inhibition"
value_measured = 4

[[record]]
molecule = "Cc1cc(N[C@@H](CC(C)C)C(=O)NCCOc2ccccc2)nc(NCC2CCCCC2)n1"
assay_readout = "inhibition"
value_measured = -1


Would you kindly look at the next entry?
So for O=C(/C=C/c1ccc([N+](=O)[O-])cc1)N1CCC(NS(=O)(=O)c2ccc(Br)cc2)CC1 , the logged inhibition turned out to be -4

----------
- Assay info: human hepatoma cell viability loss – ATP luminescence, cytotoxicity control for P. falciparum antimalarial project, primary screen (AID 2303);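 note: 0% = DMSO wells and 100% = digitonin-killed cells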
- Condition label: HepG2 viability, 24-48 h, at 10 µM
Active and inactive are the calls of the source.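 The calls were made as follows: active = inhibition above 50%; inactive = the rest.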
Please reply with one of these outcomes: True (active), False (inactive)

Worked examples, 8 molecules total:
[[record]]
molecule = "CC(C)CNC(=O)c1cncc(-c2ccc(CNCCCc3ccccc3)cc2)c1"
group_label = "False"

[[record]]
molecule = "CC(C)Nc1ccc(Nc2ccnc3cc4ccccc4cc23)cc1"
group_label = "False"

[[record]]
molecule = "O=S(=O)(NCCN1CCCC1)c1cccc(-c2cccc(CNCc3ccccc3)c2)c1"
group_label = "False"

[[record]]
molecule = "COc1cc2c(cc1CCNCCCCNCCc1cc3c(cc1OC)CCCC3)CCCC2"
group_label = "True"

[[record]]
molecule = "COc1cc(F)c2ncc(Cl)c(CCN3CCC(NCc4cc5c(cn4)OCCO5)CC3)c2c1"
group_label = "False"

[[record]]
molecule = "COc1cc(-c2cc(-c3ccc(S(C)(=O)=O)cc3)cnc2N)ccc1O"
group_label = "False"

[[record]]
molecule = "COc1ccc(CCNCCCCNCCc2ccc(OC)c3ccccc23)c2ccccc12"
group_label = "True"

[[record]]
molecule = "O=C(Nc1ccc(C(F)(F)F)cc1)c1ccc(S(=O)(=O)NC2CCN(CC3CCCCC3)C2)cc1 (stereo unspecified)"
group_label = "False"


In: Tell me the assay call for O=C(Nc1ccc(Br)cc1)c1cc(Br)ccc1NS(=O)(=O)c1cc(C(F)(F)F)cc(C(F)(F)F)c1 please.
Out: True

In: Tell me the assay call for Cc1ccc(C(=O)NC2CC2)cc1-c1ccc2c(cnn2S(=O)(=O)c2ccc(F)cc2)c1 please.
Out: False

In: Tell me the assay call for COc1ccc(CNCc2cccc(-c3ccc(-c4nc5ccccc5[nH]4)s3)c2)cc1 please.
Out: False

In: Tell me the assay call for O=C(Nc1ccc2c(c1)OCO2)c1cc(-c2cccnc2)nc2ccc(Cl)cc12 please.
Out: False

In: Tell me the assay call for COc1cc2ncnc(NCCc3ccccc3Cl)c2cc1OC please.
Out: False

In: Tell me the assay call for CCCCc1cc(NCc2ccncc2)nc(Nc2ccccc2)n1 please.
Out: False

In: Tell me the assay call for O=C(/C=C/c1ccc(Cl)c(Cl)c1)NCCCCCN1CCC(NC(=S)Nc2ccc(Cl)cc2)CC1 please.
Out: True

In: Tell me the assay call for CCCNCc1ccc(-c2ccc(CN(CCOC)C(=O)CCC(=O)c3ccc(OC)c(F)c3)cc2)nc1 please.
Out: False
